B1: peptide HD2 (from tick evasin EVA4) / CCL17 (biotinylated, synthetic) (parent)
chain 1: EEDDYTAYAPLTCYFT
chain 2: ARGTNVGRECCLEYFKGAIPLRKLKTWYQTSEDCSRDAIVFVTVQGRAICSDPNNKRVKNAVKYLQSLERS

variants of: B1; conditions: with CCL17 (biotinylated, synthetic); scale: log2
Kindly state enrichment for each of the entries shown.
Please respond with just the number, no unit label.

Query (variant): chain 1 A7C ; field requested: enrichment -9.94

How about chain 1 E1C ? -9.85

Also chain 1 C13G , if possible. -10.5

What about chain 1 P10S ? -9.3

chain 1 P10H , same question. -8.06

Record: chain 1 Y8A -8.88

What do you get for chain 1 Y8E ? -6.29

Again, but for chain 1 D3C -10

Moving on to chain 1 P10C -9.82

And chain 1 C13D ? -9.26

// next record chain 1 A9D -8.33

Input chain 1 C13A -10.7

# repeat for chain 1 Y8D -7.65

Repeat for the following variant: chain 1 Y5E -3.59

Repeat for the following variant: chain 1 T6C -11.2

And what about the variant chain 1 Y5K ? -5.7

Field entry: chain 1 Y8I -9.49

Now consider chain 1 Y5T and answer again. -7.77

# iterate: chain 1 C13W -9.75

Please do the same for chain 1 P10V as well. -10.5

Moving on to chain 1 Y5N -7.81

Proceed to chain 1 Y14D -7.63

Values compiled from paper PMC11969024.
